# system.under.test: Neu5Ac(a2-3)Gal(b1-3)GlcNAc6S
# protocol.summary: glycan array binding signal (z-score within array); higher = stronger binding
# run.conditions: glycan notation: IUPAC condensed, linker removed
This excerpt belongs to a sample that is enriched for the strongest signals.
property.label: glycan array binding signal (z-score)
Give bare numbers.

// solved cases for glycan array binding signal (z-score) follow
Si Bti9 1b-V5-his (Solanum lycopersicum) (protein) MQCNRGCDLALASFYVWRGSNLTLISEMFSTSIADIVSYNNRDNIPNQDSVIAGTRINIPFRCDCLNDGEVLGHAFPYRVKSGDTYDLVARNYSDLTTAQWMMKFNSYPENNIPNTVNLSVVVNCSCGNSDVSKDFGLFVTYPVRAEDNLTSVASAANVSEDIIRRYNPAAVSILDIGQGIIYIPGRDRNGNFPPLPTSTDGLSGGAKKGGRADPAFLYKVVINSKLEGKPIPNPLLGLDSTRTGHHHHHH = 0.024
GALT1 615 (Arabidopsis thaliana), Q8L7F9 (protein) DPMRGSHHHHHHGMASMTGGQQMGRDLYDDDDKSRLQKPYITAAASVVVTPNTTLPMEWLRITLPDFMKEARNTQEAISGDDIAVVSGLFVEQNVSKEEREPLLTWNRLESLVDNAQSLVNGVDAIKEAGIVWESLVSAVEAKKLVDVNENQTRKGKEELCPQFLSKMNATEADGSSLKLQIPCGLTQGSSITVIGIPDGLVGSFRIDLTGQPLPGEPDPPIIVHYNVRLLGDKSTEDPVIVQNSWTASQDWGAEERCPKFDPDMNKKVDDLDECNKMVGGEINRTSSTSLQSNTSRGVPVAREASKHEKYFPFKQGFLSVATLRVGTEGMQMTVDGKHITSFAFRDTLEPWLVSEIRITGDFRLISILA = -0.079

Noted for Arath Fbox LD (Arabidopsis thaliana) (protein) EFSVWLEKASGKRCLMLSAMNLSIIWGDNPQYWQWIPIPESRFEKVAKLRDVCWFEIRGRTNTRVLSPRTRYSAYIVFKGVDKCYGFQNVAIEAAVGVVGQEPSRRLICFSEAIRRGRRNVVKPKQREDGWMEIELGEFFNDGGIMDNDEIEMSALETKQLNRKCGLIIQGIEIRPAKILAAASFLEQKLISEEDLNSAVDHHHHHH : its glycan array binding signal (z-score) reads -0.302
